test protocol: Inhibitory concentration against oxoglutarate oxygenase was determined
measure name: IC50 (µM)
Field: numeric (µM). Do not append units.

Per the records, this molecule ( O=C(O)CCC(S)C(=O)O (stereo unspecified) ) has IC50 equal to 120
